Each recorded value in this set is attributed to ChEMBL document CHEMBL1914451.

Tested on: P388
Test: Antiproliferative activity against mouse P388 cells
Format: functional
Conditions: read-out: ED50 (the source's name)
EC50 listing for selected compounds.

Compound	EC50
C[C@@H]1O[C@H](OC/C=C2\CC[C@H]3[C@@H]4CC[C@H]5Cc6nc7c(nc6C[C@]5(C)[C@H]4[C@@H](O)C[C@]23C)C[C@@H]2CC[C@@H]3[C@H]([C@@H](O)C[C@]4(C)/C(=C/CO[C@H]5O[C@@H](C)[C@H](O)[C@@H](O)[C@H]5O)CC[C@@H]34)[C@@]2(C)C7)[C@H](O)[C@H](O)[C@H]1O	> 10 µg/mL
CC(=O)O[C@@H]1[C@@H](OC(C)=O)[C@H](C)O[C@H]2OC(C)(OC/C=C3\CC[C@H]4[C@@H]5CCC6=CC(=O)CC[C@]6(C)[C@H]5[C@@H](O)C[C@]34C)O[C@@H]21 (some centres not stated)	9.5 µg/mL
CC(=O)OC/C=C1\CC[C@H]2[C@@H]3CC[C@H]4CC(=O)[C@H](N=[N+]=[N-])C[C@]4(C)[C@H]3[C@@H](O)C[C@]12C	12 µg/mL
CC(=O)OC/C=C1\CC[C@H]2[C@@H]3CC[C@H]4Cc5nc6c(nc5C[C@]4(C)[C@H]3[C@@H](O)C[C@]12C)C[C@@H]1CC[C@@H]2[C@H]([C@@H](O)C[C@]3(C)/C(=C/COC(C)=O)CC[C@@H]23)[C@@]1(C)C6	77.2 µg/mL
CC(=O)O[C@@H]1[C@@H](OC(C)=O)[C@H](C)O[C@@H](OC/C=C2\CC[C@H]3[C@@H]4CC[C@H]5Cc6nc7c(nc6C[C@]5(C)[C@H]4[C@@H](O)C[C@]23C)C[C@@H]2CC[C@@H]3[C@H]([C@@H](O)C[C@]4(C)/C(=C/CO[C@@H]5O[C@@H](C)[C@H](OC(C)=O)[C@@H](OC(C)=O)[C@H]5OC(C)=O)CC[C@@H]34)[C@@]2(C)C7)[C@@H]1OC(C)=O	> 10 µg/mL
C=C[C@]1(C)CCC2=C1C[C@H](O)[C@H]1[C@H]2CC[C@H]2Cc3nc4c(nc3C[C@@]21C)C[C@@H]1CC[C@H]2C3=C(C[C@H](O)[C@@H]2[C@@]1(C)C4)[C@](C)(C=C)CC3	> 10 µg/mL
CC(=O)O[C@@H]1[C@@H](OC(C)=O)[C@H](C)O[C@H](OC/C=C2\CC[C@H]3[C@@H]4CC[C@H]5Cc6nc7c(nc6C[C@]5(C)[C@H]4[C@@H](O)C[C@]23C)C[C@@H]2CC[C@@H]3[C@H]([C@@H](O)C[C@]4(C)/C(=C/CO[C@H]5O[C@@H](C)[C@H](OC(C)=O)[C@@H](OC(C)=O)[C@H]5OC(C)=O)CC[C@@H]34)[C@@]2(C)C7)[C@@H]1OC(C)=O	> 10 µg/mL
